# assayed system: T1, human urokinase plasminogen activator receptor, recombinant extracellular domain protein (human, UniProt Q03405 23-303)
# T1 construct: Bought recombinant protein (Sino Biological); also called h uPAR; human uPAR
# T1 sequence (Q03405 23-303 limits assumed): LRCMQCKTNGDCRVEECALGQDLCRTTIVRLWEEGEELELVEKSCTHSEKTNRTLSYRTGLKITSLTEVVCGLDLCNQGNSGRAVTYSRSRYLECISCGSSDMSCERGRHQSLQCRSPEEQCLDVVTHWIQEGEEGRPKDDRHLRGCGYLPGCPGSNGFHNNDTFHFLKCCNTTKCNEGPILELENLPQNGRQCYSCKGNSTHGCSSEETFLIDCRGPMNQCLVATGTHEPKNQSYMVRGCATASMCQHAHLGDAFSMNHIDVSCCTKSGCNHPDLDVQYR
# protocol notes: SPR (Biacore T200) kinetics, purified sdAb 150-0.62 nM, h uPAR immobilised on CM5, 1:1 fit
# kon per record follows
Only the number, expressed in M⁻¹ s⁻¹, is required.

[ask] What value of kon has been reported for the following binder? sdAb 15 (clone 5A4) with carboxy-terminal hexahistidine tag (VHH, Lead compound; C-terminal 6His for purified-protein SPR; koff screen used bacterial extracts of the pMECS-GG construct; also called sdAb15.6His; Nr 15) VHH: QVQLQESGGGWVQPGGSLRLSCAASGFTLDYYGIGWFRQAPGKEREGVSCISSSDGSTYYADSVKGRFTISRDNAKNTVYLQMNSLKPEDTAVYYCATRGASCYYTGSYSLGYDYWGQGTQVTVSS
[reply] 1.6e+06

[ask] Param item: sdAb 17 (clone 5B7) with carboxy-terminal hexahistidine tag (VHH, C-terminal 6His for purified-protein SPR; koff screen used bacterial extracts; also called Nr 17) VHH: QVQLQESGGGLVQPGGSLRLSCAVSGSTLEYYGIGWFRQAPGKEREGVSCISSSDGSTYYADSVKGRFTISRDNAKNTVYLQMNSLKPEDTAVYYCATRGASCYYTGSYSLGYDYWGQGTQVTVSS
[reply] 860000

[ask] Param item: sdAb 16 (clone 5A5) with carboxy-terminal hexahistidine tag (VHH, C-terminal 6His for purified-protein SPR; koff screen used bacterial extracts; also called Nr 16) VHH: QVQLQESGGGLVQPGGSLRLSCAISGFTLDYYGIGWFRQAPGKEREGVSCISSSDGSTYYADSVKGRFTISRDNAKNTVYLQMNSLKPEDTAVYYCATRGASCYYSGSYSLGYDYWGQGTQVTVSS
[reply] 500000

[ask] Param item: sdAb 18 (clone 5H2) with carboxy-terminal hexahistidine tag (VHH, C-terminal 6His for purified-protein SPR; koff screen used bacterial extracts; also called Nr 18) VHH: QVQLQESGGGLAQPGGSLRLSCTASGFTSDYYGIGWFRQAPGKEREGVSCISSSDGSTYYADSVKGRFTISRDNAKNTVYLQMNSLKPEDTAVYYCATRGASCYYTGSYSLGYDYWGQGTQVTVSS
[reply] 840000
